Origin of measurements: PubChem BioAssay

Experiment: Pseudomonas biofilm growth suppression – PAO1 strain, BacTiter-Glo luminescence, LB-PBS, primary screen (AID 1144)
Settings: P. aeruginosa PAO1 biofilm, 12 h, higher = more signal
Hi, to clarify the labels: met covers z-score from -0.1 upward, not met covers anything below -0.1.

Request: Textbook exercise: given the entry CCCCCC1=C2CNC(Cc3ccccc3)(C(=O)OC)C=C2C(C)C1=O (stereo not given) , state whether its z-score is greater than or equal to -0.1.
Response: met

Request: Textbook exercise: given the entry CN(C)c1ccc(C(O)C2C=CC3C(=O)N(Cc4ccccc4)C(=O)C3N2n2cnnc2)cc1 (stereo not given) , state whether its z-score is greater than or equal to -0.1.
Response: not met

Request: Textbook exercise: given the entry C=CCC(OC(C)=O)[C@@H]1[C@@H](N(Cc2ccc(-c3cccc(C(F)(F)F)c3)o2)C(=O)Cc2ccc(F)cc2)c2cc(OCCCO)ccc2N1C(=O)Cc1ccc2ccccc2c1 (stereo not given in full) , state whether its z-score is greater than or equal to -0.1.
Response: not met

Request: Textbook exercise: given the entry CC(C)C[C@H]1NC(=O)C([C@@H](C)OCc2ccccc2)NC(=O)[C@@]23C(=O)N[C@@H](Cc4ccccc4)C2[C@H](C)[C@@]2(C)O[C@H]2C3/C=C/C/C=C\CNC1=O (stereo not given in full) , state whether its z-score is greater than or equal to -0.1.
Response: met

Request: Textbook exercise: given the entry CN(C)CCCCNC(=O)[C@H]1C[C@H]2C(=O)NCC(=O)N2[C@H]1c1ccc(O)cc1 , state whether its z-score is greater than or equal to -0.1.
Response: met

Request: Textbook exercise: given the entry O=C1C2C=CC(C(O)c3c(F)cccc3Cl)N(Nc3ccc([N+](=O)[O-])cc3)C2C(=O)N1c1ccccc1 (stereo not given) , state whether its z-score is greater than or equal to -0.1.
Response: not met

Request: Textbook exercise: given the entry COCCOC(=O)N1C(=O)[C@@]2(c3ccccc31)[C@H](c1ccc(O)cc1)N1[C@H](c3ccccc3)[C@H](c3ccccc3)OC(=O)[C@H]1[C@@H]2C(=O)N1CCCCCCC1 , state whether its z-score is greater than or equal to -0.1.
Response: not met

Request: Textbook exercise: given the entry COCCOC(=O)N1C(=O)[C@@]2(c3cc(C#CCC(C(=O)OC)C(=O)OC)ccc31)[C@H](C(=O)Nc1nc3ccccc3s1)[C@H]1C(=O)O[C@H](c3ccccc3)[C@H](c3ccccc3)N1[C@@H]2c1ccc(O)cc1 , state whether its z-score is greater than or equal to -0.1.
Response: met

Others:
Request: Textbook exercise: given the entry CO[C@H]1O[C@H](CO)[C@@H](OC(=O)Nc2ccccc2)[C@H](OC(=O)Nc2ccccc2)[C@H]1OC(=O)Nc1ccccc1 , state whether its z-score is greater than or equal to -0.1.
Response: not met

Request: Textbook exercise: given the entry C=CCC(OC(C)=O)[C@@H]1[C@@H](N(Cc2cc3ccccc3o2)C(=O)Cc2ccc(OC)cc2)c2cc(OCCCO)ccc2N1C(=O)c1ccc2ccccc2n1 (stereo not given in full) , state whether its z-score is greater than or equal to -0.1.
Response: met

Request: Textbook exercise: given the entry CC1CC/C=C\[C@H]2OC34C=CCN(Cn5nnc6ccccc65)C(=O)[C@H]3N(CCCCCCO)C(=O)[C@@H]4C2C(=O)O1 (stereo not given in full) , state whether its z-score is greater than or equal to -0.1.
Response: not met

Request: Textbook exercise: given the entry COC(=O)C1=CC(CCCO)=CC(c2cccs2)N(Cc2cc3c(cc2Br)OCO3)C=C1C(=O)OC (stereo not given) , state whether its z-score is greater than or equal to -0.1.
Response: met

Request: Textbook exercise: given the entry COc1ccc([Si](C)(C)[C@H]2[C@H](CCO)O[C@@]3(C(=O)N(Cc4cccc(N(C=O)c5ccccc5)c4)c4ccccc43)[C@@H]2C)cc1 , state whether its z-score is greater than or equal to -0.1.
Response: not met

Request: Textbook exercise: given the entry N#Cc1ccc(-c2cccc(=O)o2)cc1 , state whether its z-score is greater than or equal to -0.1.
Response: not met

====

Test: Pseudomonas biofilm growth suppression – PAO1 strain, BacTiter-Glo luminescence, LB-PBS, primary screen (AID 1144)
Settings: P. aeruginosa PAO1 biofilm, 12 h, higher = more signal
Value kind: z-score
Numbers only.

# annotated cases, reported z-score shown
Request: # input molecule: CN(C)CCCC[C@@H]1NC(=O)[C@@H]2C[C@H](C(=O)NCCCCCCNC(=O)CS)[C@H](c3ccc(O)cc3)N2C1=O ; wanted: its z-score
Response: -0.525

Request: # input molecule: O=C(NCc1ccccc1)[C@@H]1c2ccccc2C(=O)N(Cc2cc(C(F)(F)F)cc(C(F)(F)F)c2)[C@H]1c1ccc(CO)cc1 ; wanted: its z-score
Response: -1.69

Request: # input molecule: CC1CC/C=C\[C@H]2OC34C=CCN(Cc5ccccc5)C(=O)[C@H]3N(CCCCCCO)C(=O)[C@@H]4C2C(=O)O1 (stereo partly drawn) ; wanted: its z-score
Response: 2.79

Request: # input molecule: C=CCOC(=O)[C@@H]1[C@H]2C(=O)O[C@H](c3ccccc3)[C@H](c3ccccc3)N2[C@H](c2ccc(OCCOC(=O)[C@H]3C[C@H]4C(=O)N5CCC[C@H]5C(=O)N4[C@H]3c3cccc(OCCO)c3)cc2)[C@@]12C(=O)Nc1ccc(I)cc12 ; wanted: its z-score
Response: -0.699

Request: # input molecule: COCCOC(=O)N1C(=O)[C@@]2(c3cc(C#CCC(C(=O)OC)C(=O)OC)ccc31)[C@H](C(N)=O)[C@H]1C(=O)O[C@H](c3ccccc3)[C@H](c3ccccc3)N1[C@@H]2c1ccc(O)cc1 ; wanted: its z-score
Response: -1.01

Please state z-score for every molecule in the list that follows.
1. COCCOC(=O)N1C(=O)[C@@]2(c3cc(C#CC4(O)CCCCCC4)ccc31)[C@H](c1ccc(O)cc1)N1[C@H](c3ccccc3)[C@H](c3ccccc3)OC(=O)[C@H]1[C@@H]2C(=O)N1CCCCCCC1
2. CC(C)C(=C=CC[C@H](O)c1ccccc1OCCO)C[C@H](O)COCc1ccccc1

Response:
[0.887, 0.297]

Please state z-score for every molecule in the list that follows.
1. CCCNC(=O)[C@@]1(Sc2ccc(C)cc2)CC(=O)N(Cc2ccccc2Cl)[C@@H]1c1ccc(CO)cc1I
2. COC(=O)[C@@]1(Cc2ccc(OC)cc2)[C@H]2c3cc(C(=O)N4CCCC4)n(CCn4cc([N+](=O)[O-])nc4C)c3C[C@H]2CN1C(=O)c1ccccc1
3. CN1C(=O)C2C(C1=O)C1C=C(CCCO)C2C(C2CC2)N1Cc1cccc(OC(F)(F)F)c1 (stereo not drawn)
4. COC(=O)C(CC#Cc1ccc2c(c1)[C@]1(C(=O)N2)[C@H](C(=O)N2CCc3cc(OC)c(OC)cc3C2)[C@H]2C(=O)O[C@H](c3ccccc3)[C@H](c3ccccc3)N2[C@@H]1c1ccccc1OCCO)C(=O)OC
5. C=CCN1C(=O)[C@]2(O[C@H](CCn3cc([C@H](O)c4ccccc4)nn3)[C@@H]([Si](C)(C)c3ccc(OC)cc3)[C@@H]2C)c2cc(NC(=O)c3ccc(OC)cc3)ccc21
6. C[C@@H]1ON(c2ccc(I)cc2)[C@H](c2cccc(NC(=O)OCC3c4ccccc4-c4ccccc43)c2)[C@H]1C(=O)N1C(=O)OC[C@H]1Cc1ccccc1

Response:
[0.0611, -0.245, 0.55, -0.375, -1.5, -0.215]

====

Tested on: Chordin-like protein 2 (CHRDL2)
Assay: compounds binding chordin-like 2 – biochemical, small-molecule microarray, 635 nm fluorescence, primary screen (AID 1126);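 note: printed compound slides probed with Chrdl2 protein at 4 µg/mL for 1 h at 4 C; score merges 667 nm emission intensity with signal to noise over three replicate slides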
Details: fluorescence 635 nm, higher = more signal
Value kind: composite z-score

# annotated cases, reported composite z-score shown
Request: Form field - read-out: composite z-score; system: Chordin-like protein 2 (CHRDL2); submitted item: CC(C)=C1C(=O)C(c2ccccc2)=C2CN3C(=O)N(CCc4ccccc4)C(=O)[C@]3(C)[C@H]21
Response: -0.686

Request: Form field - read-out: composite z-score; system: Chordin-like protein 2 (CHRDL2); submitted item: Cc1ccc(S[C@]2(C(=O)NCCCN(C)C)CC(=O)N(Cc3ccccc3C(F)(F)F)[C@@H]2c2ccc(CO)cc2I)cc1
Response: -0.532

Request: Form field - read-out: composite z-score; system: Chordin-like protein 2 (CHRDL2); submitted item: NC(=O)NCC#Cc1ccc2c(c1)[C@]1(C(=O)N2)[C@H](c2ccc(OCCO)cc2)N2[C@H](c3ccccc3)[C@H](c3ccccc3)OC(=O)[C@H]2[C@@H]1C(=O)NC[C@H](O)c1ccccc1
Response: 0.0046

Request: Form field - read-out: composite z-score; system: Chordin-like protein 2 (CHRDL2); submitted item: O=C(NC1CC1)[C@@H]1c2ccccc2C(=O)N(CC23CC4CC(CC(C4)C2)C3)[C@H]1c1ccc(CO)cc1
Response: 1.16

Request: Form field - read-out: composite z-score; system: Chordin-like protein 2 (CHRDL2); submitted item: CC(C)NC(=O)[C@@H]1c2ccccc2C(=O)N(Cc2ccccc2C(F)(F)F)[C@H]1c1ccc(CO)cc1
Response: -0.585

Please state composite z-score for every compound in the list that follows.
1. CC1CC/C=C\[C@H]2OC34C=CCN(Cn5nnc6ccccc65)C(=O)[C@H]3N(CCCCCCO)C(=O)[C@@H]4C2C(=O)O1 (some centres not stated)
2. CC1CC/C=C\[C@H]2OC34C=CCN(CCN5CCOCC5)C(=O)[C@H]3N(CCCO)C(=O)[C@@H]4C2C(=O)O1 (some centres not stated)

Response:
1: -1.25; 2: -0.727
